Experiment: Solubility measurements (solvent aliquot addition, visual inspection)
Type: physicochemical
Conditions: 2-butanone, organic solvent or mixture, thermodynamic from solid, 2-Butanone, Ambient; read-out: Approximate Solubility
Where a name gives a salt, the structure may show the parent alone.
measured endpoint: solubility

solubility in this record for CC(C)(C)c1cc(NC(=O)Nc2ccc(-c3cn4c(n3)sc3cc(OCCN5CCOCC5)ccc34)cc2)no1 [Form A of the HCl salt of Compound B1] : < 2000 µg/mL

====

Assay: Solubility measurements (solvent aliquot addition, visual inspection)
Assay type: physicochemical
Details: tetrahydrofuran, organic solvent or mixture, thermodynamic from solid, Tetrahydrofuran (THF), Ambient; read-out: Approximate Solubility
Counter-ions that a name gives are not always drawn.
measured endpoint: solubility

solubility in this record for CC(C)(C)c1cc(NC(=O)Nc2ccc(-c3cn4c(n3)sc3cc(OCCN5CCOCC5)ccc34)cc2)no1 [Form A of the HCl salt of Compound B1] : < 2000 µg/mL

====

Experiment: Solubility measurements (solvent aliquot addition, visual inspection)
Type: physicochemical
Conditions: acetone, organic solvent or mixture, thermodynamic from solid, Acetone, Ambient; read-out: Approximate Solubility
Where a name gives a salt, the structure may show the parent alone.
measured endpoint: solubility

solubility in this record for CC(C)(C)c1cc(NC(=O)Nc2ccc(-c3cn4c(n3)sc3cc(OCCN5CCOCC5)ccc34)cc2)no1 [Form A of the HCl salt of Compound B1] : < 2000 µg/mL

====

Assay: Solubility measurements (solvent aliquot addition, visual inspection)
Assay type: physicochemical
Settings: dichloromethane, organic solvent or mixture, thermodynamic from solid, Dichloromethane (DCM), Ambient; read-out: Approximate Solubility
Where a name gives a salt, the structure may show the parent alone.
measured endpoint: solubility

solubility in this record for CC(C)(C)c1cc(NC(=O)Nc2ccc(-c3cn4c(n3)sc3cc(OCCN5CCOCC5)ccc34)cc2)no1 [Form A of the HCl salt of Compound B1] : < 2000 µg/mL

====

Assay: Solubility measurements (solvent aliquot addition, visual inspection)
Type: physicochemical
Conditions: acetonitrile, organic solvent or mixture, thermodynamic from solid, Acetonitrile (ACN), Ambient; read-out: Approximate Solubility
Counter-ions that a name gives are not always drawn.
measured endpoint: solubility

solubility in this record for CC(C)(C)c1cc(NC(=O)Nc2ccc(-c3cn4c(n3)sc3cc(OCCN5CCOCC5)ccc34)cc2)no1 [Form A of the HCl salt of Compound B1] : < 2000 µg/mL

====

Assay: Solubility measurements (solvent aliquot addition, visual inspection)
Format: physicochemical
Conditions: ethanol/water (24:1), 60 °C, organic solvent or mixture, thermodynamic from solid, Ethanol/water (24:1), 60° C.; read-out: Approximate Solubility
Counter-ions that a name gives are not always drawn.
measured endpoint: solubility

solubility in this record for CC(C)(C)c1cc(NC(=O)Nc2ccc(-c3cn4c(n3)sc3cc(OCCN5CCOCC5)ccc34)cc2)no1 [Form A of the HCl salt of Compound B1] : < 2000 µg/mL

====

Test: Solubility measurements (solvent aliquot addition, visual inspection)
Type: physicochemical
Conditions: methanol, organic solvent or mixture, thermodynamic from solid, Methanol (MeOH), Ambient; read-out: Approximate Solubility
Description: A weighed sample was treated with aliquots of the test solvent at room temperature or elevated temperature. Complete dissolution of the test material was determined by visual inspection. […] The actual solubility may be greater than the value calculated because of the use of solvent aliquots that were too large or due to a slow rate of dissolution. […] If complete dissolution was achieved as a result of only one aliquot addition, the solubility is expressed as “greater than.”
Counter-ions that a name gives are not always drawn.
measured endpoint: solubility (µg/mL)
Answer with a number only, understood to be in µg/mL.

solubility in this record for CC(C)(C)c1cc(NC(=O)Nc2ccc(-c3cn4c(n3)sc3cc(OCCN5CCOCC5)ccc34)cc2)no1 [Form A of the HCl salt of Compound B1] : 3000

====

Assay: Solubility measurements (solvent aliquot addition, visual inspection)
Type: physicochemical
Details: acetonitrile/water (1:1), 60 °C, aqueous with cosolvent or surfactant or cyclodextrin, thermodynamic from solid, ACN/water (1:1), 60° C.; read-out: Approximate Solubility
Where a name gives a salt, the structure may show the parent alone.
measured endpoint: solubility

solubility in this record for CC(C)(C)c1cc(NC(=O)Nc2ccc(-c3cn4c(n3)sc3cc(OCCN5CCOCC5)ccc34)cc2)no1 [Form A of the HCl salt of Compound B1] : ≥ 110 mg/mL

====

Experiment: Solubility measurements (solvent aliquot addition, visual inspection)
Assay type: physicochemical
Conditions: water, 68 °C, water, thermodynamic from solid, WATER, 68 ° C.; read-out: APPROXIMATE SOLUBILITY
Where a name gives a salt, the structure may show the parent alone.
measured endpoint: solubility

solubility in this record for CC(C)(C)c1cc(NC(=O)Nc2ccc(-c3cn4c(n3)sc3cc(OCCN5CCOCC5)ccc34)cc2)no1 [Form B of the HCl salt of Compound B1] : < 3000 µg/mL

====

Assay: Solubility measurements (solvent aliquot addition, visual inspection)
Assay type: physicochemical
Conditions: isopropanol, organic solvent or mixture, thermodynamic from solid, Isopropanol (IPA), Ambient; read-out: Approximate Solubility
Where a name gives a salt, the structure may show the parent alone.
measured endpoint: solubility

solubility in this record for CC(C)(C)c1cc(NC(=O)Nc2ccc(-c3cn4c(n3)sc3cc(OCCN5CCOCC5)ccc34)cc2)no1 [Form A of the HCl salt of Compound B1] : < 2000 µg/mL

====

Assay: Solubility measurements (solvent aliquot addition, visual inspection)
Assay type: physicochemical
Settings: ethanol/water (4:1), 60 °C, organic solvent or mixture, thermodynamic from solid, Ethanol/water (4:1), 60° C.; read-out: Approximate Solubility
Where a name gives a salt, the structure may show the parent alone.
measured endpoint: solubility

solubility in this record for CC(C)(C)c1cc(NC(=O)Nc2ccc(-c3cn4c(n3)sc3cc(OCCN5CCOCC5)ccc34)cc2)no1 [Form A of the HCl salt of Compound B1] : ≥ 39 mg/mL
